Ref: patent US5440041A

- System: human stromal cells
- EXPERIMENT SUMMARY: Stromal cell proliferation stimulated by PDGF
- Format: cell-based
- TEST CONTEXT: Homo sapiens; PDGF BB and IL-1α; FIG. 4, FIG. 9; read-out: IC50 to inhibit stromal cell proliferation stimulated by PDGF BB and IL-1α
pIC50: −log10 of the molar value.
ASSAY ENDPOINT: pIC50

Any idea what pIC50 was measured for Cn1cnc2c1c(=O)n(CCCCC1COCO1)c(=O)n2C (racemic) ?
~4.00

---
I have this molecule here, Cn1cnc2c1c(=O)n(CCCCCCCCC1COCO1)c(=O)n2C (racemic) , and I need its recorded pIC50.
> 4.00
